Molecular target: UniProt P51531
Sequence (P51531 whole entry): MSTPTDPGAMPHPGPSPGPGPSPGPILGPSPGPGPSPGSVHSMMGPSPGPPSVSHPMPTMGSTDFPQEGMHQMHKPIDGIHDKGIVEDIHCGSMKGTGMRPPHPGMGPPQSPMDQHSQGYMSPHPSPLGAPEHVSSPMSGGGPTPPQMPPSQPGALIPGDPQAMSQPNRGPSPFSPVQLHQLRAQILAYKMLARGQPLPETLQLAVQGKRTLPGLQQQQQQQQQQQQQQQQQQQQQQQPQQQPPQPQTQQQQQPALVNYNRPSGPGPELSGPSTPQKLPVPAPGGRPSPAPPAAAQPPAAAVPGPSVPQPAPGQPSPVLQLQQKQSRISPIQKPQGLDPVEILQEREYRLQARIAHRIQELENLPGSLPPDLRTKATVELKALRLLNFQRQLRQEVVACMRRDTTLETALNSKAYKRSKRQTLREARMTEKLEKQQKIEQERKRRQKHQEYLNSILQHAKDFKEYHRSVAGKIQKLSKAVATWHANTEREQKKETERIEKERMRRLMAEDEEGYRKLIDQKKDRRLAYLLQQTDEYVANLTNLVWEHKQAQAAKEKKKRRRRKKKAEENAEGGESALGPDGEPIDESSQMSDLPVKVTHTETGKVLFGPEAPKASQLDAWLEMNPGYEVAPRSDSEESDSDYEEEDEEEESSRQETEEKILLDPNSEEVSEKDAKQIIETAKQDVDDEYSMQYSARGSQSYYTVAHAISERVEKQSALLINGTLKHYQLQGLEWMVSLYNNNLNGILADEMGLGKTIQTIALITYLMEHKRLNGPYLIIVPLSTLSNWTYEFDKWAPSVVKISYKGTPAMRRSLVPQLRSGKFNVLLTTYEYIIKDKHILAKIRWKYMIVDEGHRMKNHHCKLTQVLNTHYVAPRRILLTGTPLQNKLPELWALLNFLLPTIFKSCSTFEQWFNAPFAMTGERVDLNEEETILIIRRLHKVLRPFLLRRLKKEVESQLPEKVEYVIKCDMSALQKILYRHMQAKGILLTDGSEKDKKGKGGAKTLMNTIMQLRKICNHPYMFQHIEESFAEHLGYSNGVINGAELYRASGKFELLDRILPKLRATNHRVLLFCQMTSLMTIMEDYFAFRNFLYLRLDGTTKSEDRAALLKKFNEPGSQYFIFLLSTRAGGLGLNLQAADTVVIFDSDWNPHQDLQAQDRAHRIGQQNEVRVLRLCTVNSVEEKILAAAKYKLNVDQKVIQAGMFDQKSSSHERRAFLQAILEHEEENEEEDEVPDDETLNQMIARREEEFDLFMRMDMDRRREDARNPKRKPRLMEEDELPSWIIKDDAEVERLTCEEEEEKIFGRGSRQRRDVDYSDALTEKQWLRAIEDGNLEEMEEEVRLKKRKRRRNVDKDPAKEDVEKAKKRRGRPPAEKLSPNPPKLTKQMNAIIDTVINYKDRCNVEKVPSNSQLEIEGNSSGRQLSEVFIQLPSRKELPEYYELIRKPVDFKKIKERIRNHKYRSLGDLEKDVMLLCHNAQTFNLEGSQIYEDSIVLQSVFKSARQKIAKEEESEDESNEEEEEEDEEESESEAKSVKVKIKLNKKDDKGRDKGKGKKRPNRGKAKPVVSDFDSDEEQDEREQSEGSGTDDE
Test: HiBiT assay for protein degradation, Hela SMARCA2-HiBiT cells (A series)
Assay type: cell-based
Set-up: Hela cells were genetically modified via CRISPR/Cas9 to fuse HiBiT to the carboxy terminus of SMARCA2; host or cells: HeLa (CRISPR/Cas9 HiBiT knock-in)
Conditions: Hela SMARCA2-HiBiT cells, 24 hours treatment; read-out: SMARC A2 Hela HiBit DC50
Description: Hela cells were genetically modified via CRISPR/Cas9 to fuse HiBiT to the carboxy terminus of SMARCA2 (Promega CS302365) or SMARCA4 (Promega CS3023225). Cells were cultured in DMEM containing 10% FBS and 1% (Vol:Vol) penicillin-streptomycin. […] At the end of experiment, levels of SMARCA2 or SMARCA4 expression were assessed with Nano-Glo® HiBiT Lytic Detection Assay (Promega N3050). IC50 was obtained using the GraphPad Prism data analysis software.
attribute_measured: DC50

Example results:
Cc1ncsc1-c1ccc([C@H](CCCCCN2CCC(c3ccc4c(n3)-n3c(nc(=O)c5c(Br)cccc53)C43CCCCC3)CC2)NC(=O)[C@H]2C[C@H](O)CN2C(=O)[C@@H](n2cc(C3CC3)nn2)C(C)(C)C)cc1 :: < 100 nM
Cc1ncsc1-c1ccc([C@H](C)NC(=O)[C@@H]2C[C@@H](O)CN2C(=O)[C@@H](n2cc(CN3CCC(c4ccc5c(c4)-n4c(nc(=O)c6c(Br)cccc64)C54CCCCC4)CC3)nn2)C(C)(C)C)cc1 :: < 100 nM
Cc1ncsc1-c1ccc([C@H](C)NC(=O)[C@@H]2C[C@@H](O)CN2C(=O)[C@@H](NC(=O)CCCCN2CCC(c3ccc4c(c3)C3(CCCCC3)c3nc(=O)c5c(Cl)cccc5n3-4)CC2)C(C)(C)C)cc1 :: 100 to 500 nM

Q: Identify measured DC50 corresponding to Cc1ncsc1-c1ccc([C@H](C)NC(=O)[C@@H]2C[C@@H](O)CN2C(=O)[C@@H](NC(=O)CCCN2CCC(c3ccc4c(c3)C3(CCCCC3)c3nc(=O)c5c(Cl)cccc5n3-4)CC2)C(C)(C)C)cc1
A: 100 to 500 nM

Q: Provide measured DC50 value, entry: Cc1ncsc1-c1ccc([C@H](CN2CCOCC2)NC(=O)[C@@H]2C[C@@H](O)CN2C(=O)[C@@H](NC(=O)[C@H]2CC[C@H](CN3CCC(c4ccc5c(c4)C4(CCCCC4)c4nc(=O)c6c(Br)cccc6n4-5)CC3)CC2)C(C)(C)C)cc1
A: < 100 nM

Q: Tell me its DC50 given COCCOCCOCCOCCOC[C@H](NC(=O)[C@@H]1C[C@@H](O)CN1C(=O)[C@@H](n1cc([C@H]2CC[C@H](CN3CCC(c4ccc5c(c4)-n4c(nc(=O)c6c(Cl)cccc64)C54CCCCC4)CC3)CC2)nn1)C(C)(C)C)c1ccc(-c2scnc2C)cc1 as the entry.
A: < 10 nM

Q: Find the measured DC50 of COCCOCCOC[C@H](NC(=O)[C@@H]1C[C@@H](O)CN1C(=O)[C@@H](n1cc([C@H]2CC[C@H](CN3CCC(c4ccc5c(c4)-n4c(nc(=O)c6c(Cl)cccc64)C54CCCCC4)CC3)CC2)nn1)C(C)(C)C)c1ccc(-c2scnc2C)cc1 and report it.
A: < 10 nM

Q: Find the measured DC50 of Cc1ncsc1-c1ccc([C@H](C)NC(=O)[C@@H]2C[C@@H](O)CN2C(=O)[C@H](C2CCOCC2)n2cc([C@H]3CC[C@H](CN4CCC(c5ccc6c(c5)-n5c(nc(=O)c7c(Br)cccc75)C65CCCCC5)CC4)CC3)nn2)cc1 and report it.
A: < 10 nM
